# test description: Cocrystal eutectic constant (Keu): coformer and drug concentrations at the eutectic point in buffers and biorelevant media
# Assay type: physicochemical
# condition context: aqueous buffer, thermodynamic from solid; Blank FeSSIF, 25 °C, final pH 5.11; read-out: [PSZ]eu (also solubility of drug at equilibrium)
attribute measured: solubility (µM)
Give just the number in µM; leave the unit off.

Measured solubility of "CC[C@@H]([C@H](C)O)n1ncn(-c2ccc(N3CCN(c4ccc(OC[C@@H]5CO[C@@](Cn6cncn6)(c6ccc(F)cc6F)C5)cc4)CC3)cc2)c1=O" : 0.12

* * *

# test description: Cocrystal eutectic constant (Keu): coformer and drug concentrations at the eutectic point in buffers and biorelevant media
# Assay type: physicochemical
# condition context: thermodynamic from solid; FeSSIF, 25 °C, final pH 5.03; read-out: [PSZ]eu (also solubility of drug at equilibrium)
attribute measured: solubility
The number alone won't do; follow it with the unit.

Measured solubility of "CC[C@@H]([C@H](C)O)n1ncn(-c2ccc(N3CCN(c4ccc(OC[C@@H]5CO[C@@](Cn6cncn6)(c6ccc(F)cc6F)C5)cc4)CC3)cc2)c1=O" : 18 µM
